Test system: hT40, dGA, dGAE and truncated tau fragments
PROTOCOL TEXT: Binding ELISA / epitope mapping of anti-tau scAbs with truncated tau proteins and 13mer peptides
Set-up: species or system human
RUN PARAMETERS: Table 26 summary; top scAbs; residues of hT40
REPORTED ENDPOINT: Epitope

MOLECULE	OBSERVED VALUE
NS2A1: anti-tau clone, Table 11; SEQ ID NO: 220 (protein, NS2A1 amino acid sequence) scFv: QVQLQESGPSLVKPSQTLSLTCTVSGFSLSTNSVGWVRQAPGKAPEWVAGIDTDGEEGFNPVLKSRLSITRDTSKSQVSLSLSNVTSEDTAVYYCGRSYRTDGLAYGYVQAIDYWGPGLLVTISSEGKSSGASGESKVDDQSVLTQPSSVSGSPGQTVSITCSGSYIGSSGVGWFQQLPGSGLRTIIVASDGRPSGVPDGFSMSKSGNTATLTISSLQAEDEADYFCGSSDRTQYTGLFGSGTRLTVLG	297-390
CA4: anti-tau core clone, Table 10; SEQ ID NO: 368 (protein, CA4 amino acid sequence) scFv: QVQLQESGPSLVKPSQTLSLTCTVSGFSLTSYSVYWVRQAPGQALEWISIMYASGRVDYNPALKSRLSITRDTSKSQFSLSLSSVTTEDTAVYYCTRGIENWGPGLLVTVSSEGKSSGASGESKVDDDIQVTQSPSSLSASLTERVSITCRTSQSVNNYLSWYQQKPGQAPKLLIYYATRLYTDVPSRFSGSGSGTDYTLTITSLEADDTATYYCLQYDSTPLAFGGGTNVEIK	355-367
CE2: anti-tau core clone, Table 10; SEQ ID NO: 366 (protein, CE2/E1B8 amino acid sequence) scFv: QVQLQESGPSLVKPSQTLSLTCTVSGFSLTNYPVGWVRQAPGKALEWIGNIENDGSANYASALKSRLSITRDTSKNQVSLSLSSATTEDTAVYYCGREFGGSDGYTYFVDIDYWGPGLLVTVSSEGKSSGASGESKVDDQAVLTQPSSVSKSLGQSVSITCSGSSSNVGYGNYVSWFQQVPGSAPKILIYGATSRASGVPDRFSGSRSGNTATLTITSLQAEDEADYYCASYDGSSSGVFGSGTRLTVLG	319-331
S1E12: anti-tau clone, Table 11; SEQ ID NO: 218 (protein, S1E12 amino acid sequence) scFv: QVQLQESGPSLVKPSQTLSLTCTVSGFSLGSNSVGWVRQAPGKAPEWVAGIDTDGEEGYNPALNSRLSITRDTSKSQVSLSLSSVTSEDTAVYYCGRSYRADGLAYGYVQAIDYWGPGLLVTVSSEGKSSGASGESKVDDRVVRTQPSSVSGSLGQRVSITCSGSFIGISSVGWFQQLPGSGLRTIIVASDGRPSGVPDRFSMSKSGNTATLTISSLQAEDEADYFCGSSDRTQYTGVFGSGTRLTVLG	297-390
S1D12: sheep-derived anti-tau core clone; scFv SEQ ID NO: 32, VH 443, VL 444 (protein, S1D12 amino acid sequence) scFv: QVQLQESGPSLVKPSQTLSLTCTVSGFSLNNNAVGWVRQAPGKVPESLVGCSSDGTCYYNSALKSRLDITRDTSKNQISLSLSSVTTDDAAVYYCTRGHYSIYGYDYLGTIDYWGPGLLVTVSSEGKSSGASGESKVDDQAVLTQPSSVSGSLGQRVSITCSGSSSNVGGGNSVGWYQHLPGSGLKTIIYDTNSRPSGVPDRFSGSRSGNTATLTINSLQAEDEGDYYCVTGDSTTHDDLVGSGTRLTVLG	337-349
CE3: anti-tau core clone, Table 10; SEQ ID NO: 367 (protein, CE3 amino acid sequence) scFv: QVRLQESGPSLVKPSQTLSVTCTVSGFSLISNAVGWVRQAPGKVPESLAGCSSDGKCYYNSALKSRLDITRDTSKNQISLSLSSVTTDDAAVYYCTRGYYPVYGYDYLGTIDYWGPGLLVTVSSEGKSSGASGESKVDDQAVLTQPSSVSGSLGQRVSITCSGSSSNVGRNDVAWFQQLPGSGLRTIIYGTTSRPSGIPDRFSGSKSGVTATLTIDSLQAEDEADYFCASGDSSAINDIFGSGTRLTVLG	331-360
MD9: anti-tau clone, Table 10; SEQ ID NO: 373 (protein, MD9 amino acid sequence) scFv: QVRLQESGPSLVKSSQTLSLTCTVSGFSLTRESIAWVRQAPGKVPEWLGGVGIDGTSYYSPALKSRLSITRDTSKSQASLSLSSVATEDTAMYYCARNYIDFEYWGPGLLVTVSSEGKSSGASGESKVDDQAVLTQLSSVSGSLGQRISITCSGSSSNVGIYDVSWFQQLPGSGLRTVIYGTNNRPSGVPDRFSGSRSGNTATLTISSLQSEDEAIYYCAAGDSSTIAVFGSGTRLTVLG	373-385
CC7: human-specific anti-tau clone, Table 10; SEQ ID NO: 365 (protein, CC7 amino acid sequence) scFv: QVQLQESGPSLVKPSQTLSLTCTVSGFSLTSNAVIWVRQAPGKAPEWVALIDVDGDAAYDPALKSRLSITRDTSKSQVSLSLRSVTTEDTAVYYCARDYGSWGYVSDIDYWGPGLLVTVSSEGKSSGASGESKVDDRVVRTQPSSVSGSLGQRVSITCSGSYITGSSVGWFQQVPGSGLKTVIYDNNDRPSGVPDRFSGSKSGDTATLTISSLQAEDEADYYCASYDTSNIGLFGSGTRLTVLG	145-157
S1G2: sheep-derived anti-tau core clone; scFv SEQ ID NO: 81, VH 455, VL 456 (protein, S1G2 amino acid sequence) scFv: QVQLQESGPSLVKPSQTLSLTCTVSGFSLTSNSVGWVRQAPGKAPEWVAGIDTDGEEGYNPALNSRLSITRDTSKSQVSLSLSSVTSEDTAVYYCGRSYRADGLAYGYVQAIDYWGPGLLVTVSSEGKSSGASGESKVDDQAVVTQPSSVSGSLGQRVSITCSGSFIGISSVGWFQQLPGSGLRTIIVASDGRPSGVPDRFSMSKSGNTATLTISSLQAEDEADYFCGSSDRTPYTGVFGSGTRLTVLG	367-379
